# SYSTEM NAME: human CTLA-4 (human) (UniProt P16410)
# Sequence (P16410 36-223): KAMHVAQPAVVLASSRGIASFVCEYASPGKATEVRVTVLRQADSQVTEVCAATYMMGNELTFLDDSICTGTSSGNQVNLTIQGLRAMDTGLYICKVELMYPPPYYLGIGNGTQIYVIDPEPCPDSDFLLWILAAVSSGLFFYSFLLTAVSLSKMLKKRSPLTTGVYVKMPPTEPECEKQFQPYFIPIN
# ASSAY OVERVIEW: flow cytometry, CHO cells stably expressing CTLA4
VALUE TYPE: MFI at 33.3 nM (MFI)

# BINDER, READOUT NUMBER
measured = [
    ("variant CD80 IgV-Fc (inert) H18V/E35D/M47V/V68M/A71G/D90G (Fc fusion) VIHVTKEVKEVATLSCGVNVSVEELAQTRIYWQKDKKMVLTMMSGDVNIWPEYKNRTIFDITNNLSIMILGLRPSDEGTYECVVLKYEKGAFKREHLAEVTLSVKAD", 16800),
    ("variant CD80 IgV-Fc M47L/V68M/A71G/D90G (Fc fusion) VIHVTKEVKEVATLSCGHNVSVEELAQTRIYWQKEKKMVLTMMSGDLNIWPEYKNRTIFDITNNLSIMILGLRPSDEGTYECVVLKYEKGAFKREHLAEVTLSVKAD", 17400),
]

(1) variant CD80 IgV-Fc H18Y/A26E/V68M/A71G (Fc fusion) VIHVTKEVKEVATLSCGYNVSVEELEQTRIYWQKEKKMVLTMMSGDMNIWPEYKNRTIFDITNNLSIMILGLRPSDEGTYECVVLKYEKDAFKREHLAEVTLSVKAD
(2) variant CD80 IgV-Fc (inert) H18I/A26P/E35D/M47V/V68M/A71G (Fc fusion) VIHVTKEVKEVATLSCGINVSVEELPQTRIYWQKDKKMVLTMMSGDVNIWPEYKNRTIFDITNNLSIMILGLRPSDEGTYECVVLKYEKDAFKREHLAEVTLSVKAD
Incoming: Returns: the argument ( 1 or 2 ) having the larger MFI at 33.3 nM. Kindly give the label for the entry you pick.
Outgoing: 2
